The reported measurements were obtained from patent US20200079765A1.

tested on: Amaranthus retroflexus; assay: Herbicidal pre-emergence action (Experimental Part 2, D); assay type: in vivo; details: pre-emergence (Part 2), application rate 320 g/ha, scored visually after about 3 weeks
endpoint label: Amaranthus retroflexus, herbicidal activity

| molecule | measured value |
| --- | --- |
| CC1=CC(O)N(c2cc(C(C)(C)C)on2)C1=O (stereo not drawn) [I.2-162] | 100% |
| CC1=CC(=O)N(c2cscn2)C1O (stereo not drawn) [I.1-91] | 100% |
| CC1=CC(O)N(c2onc(C(C)(C)C)c2C)C1=O (stereo not drawn) [I.2-300] | 100% |
| CCC(=O)OC1C=C(C)C(=O)N1c1cc(C(C)(C)C)no1 (stereo not drawn) [I.6-290] | 100% |
| CC1=CC(O)N(c2cc(C(C)(C)C)no2)C1=O (stereo not drawn) [I.2-290] | 100% |
| CC1=CC(O)N(c2noc(C(C)(C)C)c2C)C1=O (stereo not drawn) [I.2-177] | 90% |
